Test system: SNB-19 CNS
experiment_summary: NCI-60 one-dose screen, 48 h (100 = growth as untreated, 0 = no growth, -100 = all killed)
condition_parameters: 10 µM unless noted
Compounds without any hit were thinned out: in the full panel of roughly 83,000, 20% have a hit. Active and inactive are the calls of the source. Rule for the calls: active = growth percent below 10; inactive = the rest.
Exercise: for every item that follows, state its recorded growth.

Can you share its growth? I mean this molecule: Cc1cc(C(=O)/C=C/c2ccc[nH]2)ccc1-n1ccc(C(F)(F)F)n1
85.1% (inactive)

Which growth is reported for this molecule? Cn1c2ccccc2c2c3c(c4c5ccccc5n(C)c4c21)C(=O)OC3
92.7% (inactive)

Bench note: what growth did Oc1cccc(CCc2ccc(Oc3cc(CCc4cccc(O)c4)cc(O)c3O)cc2)c1 show?
89% (inactive)

For CCCCOc1ccc(/C(C)=N/Nc2cc(C)nc3ccc(Br)cc23)cc1 , what is its reported growth?
91.9% (inactive)

For CCOC(=O)c1cc(C(=O)c2ccc(OC)c(OC)c2)n2ccc(/C=C/c3cc[n+](CC(=O)c4ccc(OC)c(OC)c4)cc3)cc12 , what is its reported growth?
90.6% (inactive)

Entry under review: COC(=O)/C=C1\S/C(=N\NC(=O)c2cc3ccc2/C=C\c2ccc(cc2)/C=C\3)N(c2ccccc2)C1=O . Reported growth?
39.9% (inactive)

Given CN(CCN(C)c1ccc(C(=N)N)cc1)c1ccc(C(=N)N)cc1 , state its recorded growth.
121% (inactive)

# get_value(readout='growth', item= COc1cc2nc(-c3ccc(C(F)(F)F)cc3)cc(OCCCN3CCOCC3)c2cc1OC )
61% (inactive)

Field request: growth | item: O=C(N/N=C/c1cc2ccccc2n2nnnc12)Nc1ccccc1
97.1% (inactive)

Which growth is listed for COc1cc(NC(C)CCCNC(=O)CCC(=O)NCCCNCCCCCCCCNCCCNC(=O)CCC(=O)NCCCC(C)Nc2cc(OC)cc3cccnc23)c2ncccc2c1 (centres undefined) ?
57.9% (inactive)

Can you share its growth? I mean this molecule: OCc1cnccc1NCCCOc1ccccc1
94.9% (inactive)

Field request: growth | item: O=C(N/N=C/c1ccc(Oc2ccccc2)cc1)c1cnn2c1NC(c1ccccc1)C2 (centres undefined)
61% (inactive)

Fill in the blank: the reported growth of C/C(=N\Nc1cc(C)nc2ccc(Br)cc12)c1ccc([N+](=O)[O-])cc1 is ____.
75.7% (inactive)

// lookup growth for Cc1nn(-c2ccccc2)c(Cl)c1/C=N\N=c1/sc2ccccc2n1C
98.6% (inactive)

Given the molecule c1ccc(-c2c(-c3ccccc3)[n+](Cc3ccc4ccccc4c3)c(-c3cccc4ccccc34)n2Cc2ccc3ccccc3c2)cc1 , what is its reported growth?
-68.9% (active)

Given Cc1cc2c(c(C)c1Cl)C(=O)/C(=C/c1ccc(O)c(O)c1)O2 , state its recorded growth.
99.2% (inactive)

For CNC(=O)c1cccc(Cn2nc(C)c(NC(=O)c3ccc(COc4ccc(C(F)(F)F)cc4C)cc3)c2C)c1 , what is its reported growth?
46.8% (inactive)

Record request: growth value, item O=C(Nc1cccc(C2=NCCN2)c1)c1ccc(-c2ccc(C(=O)Nc3cccc(C4=NCCN4)c3)cc2)cc1
87% (inactive)

Look up growth for this molecule: CC(=O)Oc1ccc(/C=N/NC(N)=S)nc1
102% (inactive)

Where do the numbers come from? From PubChem BioAssay (NCI).
